test-target: Adenosine receptor A1 (Mesocricetus auratus)
assay-text: Inhibition of specific binding of [3H]CPX to the A1 adenosine receptor in DDT1 MF-2 (DDT) cells.
pIC50: −log10 of the molar value.
Recorded pIC50 values for a group of compounds are listed next.
recorded-endpoint: pIC50

>  <smiles-text>
CCCn1c(=O)c2[nH]c(CCNC(=O)CBr)nc2n(CCC)c1=O

>  <reported>
5.40

$$$$
>  <smiles-text>
CCCn1c(=O)c2[nH]c(CCNC(=O)c3ccc(S(=O)(=O)F)cc3)nc2n(CCC)c1=O

>  <reported>
6.15

$$$$
>  <smiles-text>
O=C(OCCCn1c(=O)c2[nH]c(C3CCCC3)nc2n(CCCOC(=O)c2ccc(S(=O)(=O)F)cc2)c1=O)c1ccc(S(=O)(=O)F)cc1

>  <reported>
5.46

$$$$
>  <smiles-text>
CCCn1c(=O)c2[nH]c(CNC(=O)c3ccccc3)nc2n(CCC)c1=O

>  <reported>
5.20

$$$$
>  <smiles-text>
CCCn1c(=O)c2[nH]c(CNC(=O)CBr)nc2n(CCC)c1=O

>  <reported>
4.96

$$$$
>  <smiles-text>
CCCn1c(=O)c2[nH]c(CNC(=O)c3ccc(S(=O)(=O)F)cc3)nc2n(CCC)c1=O

>  <reported>
5.70

$$$$
>  <smiles-text>
CCCn1c(=O)c2[nH]c(CCCCCN3C(=O)C=CC3=O)nc2n(CCC)c1=O

>  <reported>
5.66

$$$$
>  <smiles-text>
CCCn1c(=O)c2[nH]c(CCCCCNC(=O)CBr)nc2n(CCC)c1=O

>  <reported>
5.92

$$$$
>  <smiles-text>
CCCn1c(=O)c2[nH]c(NC(=O)c3ccc(S(=O)(=O)F)cc3)nc2n(CCC)c1=O

>  <reported>
5.38

$$$$

Measured values drawn from BindingDB's records for doi:10.1021/jm00043a010 for this set.
